targetDesc: Adenosine receptor A1 (Homo sapiens, UniProt P30542)
Sequence (P30542 whole entry): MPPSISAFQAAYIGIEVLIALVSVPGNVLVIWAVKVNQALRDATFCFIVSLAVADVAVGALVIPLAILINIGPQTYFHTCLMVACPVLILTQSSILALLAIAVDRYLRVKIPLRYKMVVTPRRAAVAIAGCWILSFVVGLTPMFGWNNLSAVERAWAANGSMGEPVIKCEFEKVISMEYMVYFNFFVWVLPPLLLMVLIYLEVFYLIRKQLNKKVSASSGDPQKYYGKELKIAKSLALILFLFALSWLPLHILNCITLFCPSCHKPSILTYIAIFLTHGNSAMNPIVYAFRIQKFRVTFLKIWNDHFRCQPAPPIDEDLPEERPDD
endpoint: log10 Ki (log10 of the value in nM)

>>> measurednumber("Cn1cc2c(nc(NC(=O)Cc3ccsc3)n3nc(-c4ccco4)nc23)n1")
2.66
>>> measurednumber("O=C(Cc1cccc(Cl)c1)Nc1nc2nn(CCCc3ccccc3)cc2c2nc(-c3ccco3)nn12")
2.78
>>> measurednumber("CC(C)CCn1cc2c(nc(NC(=O)Cc3ccc(-c4ccccc4)cc3)n3nc(-c4ccco4)nc23)n1")
1.93
>>> measurednumber("Cn1cc2c(nc(NC(=O)Cc3ccc4ccccc4c3)n3nc(-c4ccco4)nc23)n1")
2.28
>>> measurednumber("CC(C)CCn1cc2c(nc(NC(=O)C(c3ccccc3)c3ccccc3)n3nc(-c4ccco4)nc23)n1")
2.64
>>> measurednumber("O=C(Cc1ccc(Cl)cc1)Nc1nc2nn(CCCc3ccccc3)cc2c2nc(-c3ccco3)nn12")
2.41
>>> measurednumber("O=C(COc1ccc(Cl)cc1)Nc1nc2nn(CCCc3ccccc3)cc2c2nc(-c3ccco3)nn12")
1.85
>>> measurednumber("CCCn1cc2c(nc(NC(=O)Cc3cccc4ccccc34)n3nc(-c4ccco4)nc23)n1")
2.59
>>> measurednumber("CC(C)CCn1cc2c(nc(NC(=O)Cc3ccc(Cl)cc3)n3nc(-c4ccco4)nc23)n1")
1.35

---

targetDesc: Adenosine receptor A2b (Homo sapiens)
assayDetails: Antagonist activity at human adenosine A2B receptor expressed in CHO cells assessed as inhibition of NECA-induced adenylyl cyclase activity
pIC50: −log10 of the molar value.
endpoint: pIC50

>>> measurednumber("O=C(Cc1cccc(Cl)c1)Nc1nc2nn(CCCc3ccccc3)cc2c2nc(-c3ccco3)nn12")
4.30
>>> measurednumber("CCCCn1cc2c(nc(NC(=O)Cc3cccc4ccccc34)n3nc(-c4ccco4)nc23)n1")
5.13
>>> measurednumber("CCCn1cc2c(nc(NC(=O)Cc3cccc4ccccc34)n3nc(-c4ccco4)nc23)n1")
4.91
>>> measurednumber("Cn1cc2c(nc(NC(=O)Cc3c(Cl)cccc3Cl)n3nc(-c4ccco4)nc23)n1")
5.19
>>> measurednumber("CCCn1cc2c(nc(NC(=O)C(c3ccccc3)c3ccccc3)n3nc(-c4ccco4)nc23)n1")
6.31

---

Each entry below carries its reported pIC50.
targetDesc: Adenosine receptor A2b (Homo sapiens, UniProt P29275)
Sequence (P29275 whole entry): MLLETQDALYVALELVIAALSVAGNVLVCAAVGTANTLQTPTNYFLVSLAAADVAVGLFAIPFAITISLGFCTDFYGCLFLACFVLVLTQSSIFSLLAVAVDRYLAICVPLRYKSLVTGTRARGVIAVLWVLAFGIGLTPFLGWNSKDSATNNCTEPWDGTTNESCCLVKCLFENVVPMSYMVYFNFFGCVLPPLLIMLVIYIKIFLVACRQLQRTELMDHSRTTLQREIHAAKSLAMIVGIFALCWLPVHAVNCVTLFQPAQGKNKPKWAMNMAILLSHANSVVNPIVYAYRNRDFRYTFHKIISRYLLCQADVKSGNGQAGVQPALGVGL
assayDetails: Antagonist activity at human adenosine A2B receptor expressed in CHO cells assessed as inhibition of NECA-induced adenylyl cyclase activity
pIC50: −log10 of the molar value.
endpoint: pIC50

>>> measurednumber("O=C(Cc1ccc(-c2ccccc2)cc1)Nc1nc2nn(CCc3ccccc3)cc2c2nc(-c3ccco3)nn12")
4.95
>>> measurednumber("CCCCn1cc2c(nc(NC(=O)Cc3ccc(-c4ccccc4)cc3)n3nc(-c4ccco4)nc23)n1")
5.06
